Let's look at some compounds and their measured IC50.
target: ErbB2 with Exon 20 YVMA insertion (HER2-YVMA) (Homo sapiens (Human), UniProt P04626, INS775YVMA); test: Cellular phosphorylation assay, constitutive ErbB2 phosphorylation (Y1196) in engineered NIH 3T3 cells, Assay 4
Sequence (P04626 other isoform, or with tags, fused parts or gaps ins YVMA behind 775): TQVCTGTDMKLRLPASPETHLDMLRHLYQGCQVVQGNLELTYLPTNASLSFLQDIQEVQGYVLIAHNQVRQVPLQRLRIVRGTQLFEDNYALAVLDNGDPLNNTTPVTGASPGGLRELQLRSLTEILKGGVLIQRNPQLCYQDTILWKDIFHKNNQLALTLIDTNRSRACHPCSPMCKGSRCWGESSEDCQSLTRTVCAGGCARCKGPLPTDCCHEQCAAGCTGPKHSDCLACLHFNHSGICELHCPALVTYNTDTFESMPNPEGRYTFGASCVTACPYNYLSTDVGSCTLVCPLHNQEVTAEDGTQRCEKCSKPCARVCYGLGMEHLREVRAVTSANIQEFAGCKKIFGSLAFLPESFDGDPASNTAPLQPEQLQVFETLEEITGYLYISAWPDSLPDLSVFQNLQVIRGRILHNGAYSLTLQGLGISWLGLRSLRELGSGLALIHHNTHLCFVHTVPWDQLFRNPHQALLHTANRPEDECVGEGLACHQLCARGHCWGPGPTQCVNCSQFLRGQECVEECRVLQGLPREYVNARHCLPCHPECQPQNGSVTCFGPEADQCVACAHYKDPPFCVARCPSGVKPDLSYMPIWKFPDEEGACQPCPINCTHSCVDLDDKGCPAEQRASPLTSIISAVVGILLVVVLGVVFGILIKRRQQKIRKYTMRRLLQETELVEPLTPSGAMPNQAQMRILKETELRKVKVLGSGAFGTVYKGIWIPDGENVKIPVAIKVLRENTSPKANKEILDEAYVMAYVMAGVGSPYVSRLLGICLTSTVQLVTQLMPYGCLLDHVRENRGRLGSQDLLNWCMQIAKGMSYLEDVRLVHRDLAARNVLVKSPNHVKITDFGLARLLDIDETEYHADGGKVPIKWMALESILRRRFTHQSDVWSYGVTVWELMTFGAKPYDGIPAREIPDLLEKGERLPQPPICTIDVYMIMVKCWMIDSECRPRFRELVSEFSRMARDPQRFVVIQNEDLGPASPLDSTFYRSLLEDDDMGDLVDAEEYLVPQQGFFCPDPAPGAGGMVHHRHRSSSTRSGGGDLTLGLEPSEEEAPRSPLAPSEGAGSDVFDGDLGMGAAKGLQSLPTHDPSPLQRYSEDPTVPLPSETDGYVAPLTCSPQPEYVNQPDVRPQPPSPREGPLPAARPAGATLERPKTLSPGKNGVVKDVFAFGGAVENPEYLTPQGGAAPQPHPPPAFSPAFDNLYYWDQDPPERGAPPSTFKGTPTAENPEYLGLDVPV
Give the value, in units of nM, as a plain number.

Illustrative cases are given below, each with its answer.
Cc1cc(Nc2ncnc3cnc(N4CCOC[C@H]4C)nc23)ccc1Oc1ccc2c(c1)ncn2C [Example 257]    9.4
Cc1cc(Nc2ncnc3cnc(N(C)CC4COC4)nc23)ccc1Oc1ccc2c(c1)ncn2C [Example 402]    14.9
Cc1cc(Nc2ncnc3cnc(N4CC5CC(C4)N5C)nc23)ccc1Oc1ccc2c(c1)ncn2C [Example 33]    583

Alright, here's another compound for you.
input: Entry under review: Cc1c(Oc2ccn3ncnc3c2)ccc(Nc2ncnc3cnc(N(C)[C@H]4CN(C)C[C@H]4F)nc23)c1F [Example 320] . Reported IC50?
output: 271

* * *

target: UniProt:P08183; experiment: MDR1 transfected LLC-PK1 permeability/efflux, Assay 6; conditions: pig, LLC-PK1, Assay 6 Pe Ratio, efflux ratio Papp(B-A)/Papp(A-B), MDR1 transfected LLC-PK1
Sequence (P08183 whole entry): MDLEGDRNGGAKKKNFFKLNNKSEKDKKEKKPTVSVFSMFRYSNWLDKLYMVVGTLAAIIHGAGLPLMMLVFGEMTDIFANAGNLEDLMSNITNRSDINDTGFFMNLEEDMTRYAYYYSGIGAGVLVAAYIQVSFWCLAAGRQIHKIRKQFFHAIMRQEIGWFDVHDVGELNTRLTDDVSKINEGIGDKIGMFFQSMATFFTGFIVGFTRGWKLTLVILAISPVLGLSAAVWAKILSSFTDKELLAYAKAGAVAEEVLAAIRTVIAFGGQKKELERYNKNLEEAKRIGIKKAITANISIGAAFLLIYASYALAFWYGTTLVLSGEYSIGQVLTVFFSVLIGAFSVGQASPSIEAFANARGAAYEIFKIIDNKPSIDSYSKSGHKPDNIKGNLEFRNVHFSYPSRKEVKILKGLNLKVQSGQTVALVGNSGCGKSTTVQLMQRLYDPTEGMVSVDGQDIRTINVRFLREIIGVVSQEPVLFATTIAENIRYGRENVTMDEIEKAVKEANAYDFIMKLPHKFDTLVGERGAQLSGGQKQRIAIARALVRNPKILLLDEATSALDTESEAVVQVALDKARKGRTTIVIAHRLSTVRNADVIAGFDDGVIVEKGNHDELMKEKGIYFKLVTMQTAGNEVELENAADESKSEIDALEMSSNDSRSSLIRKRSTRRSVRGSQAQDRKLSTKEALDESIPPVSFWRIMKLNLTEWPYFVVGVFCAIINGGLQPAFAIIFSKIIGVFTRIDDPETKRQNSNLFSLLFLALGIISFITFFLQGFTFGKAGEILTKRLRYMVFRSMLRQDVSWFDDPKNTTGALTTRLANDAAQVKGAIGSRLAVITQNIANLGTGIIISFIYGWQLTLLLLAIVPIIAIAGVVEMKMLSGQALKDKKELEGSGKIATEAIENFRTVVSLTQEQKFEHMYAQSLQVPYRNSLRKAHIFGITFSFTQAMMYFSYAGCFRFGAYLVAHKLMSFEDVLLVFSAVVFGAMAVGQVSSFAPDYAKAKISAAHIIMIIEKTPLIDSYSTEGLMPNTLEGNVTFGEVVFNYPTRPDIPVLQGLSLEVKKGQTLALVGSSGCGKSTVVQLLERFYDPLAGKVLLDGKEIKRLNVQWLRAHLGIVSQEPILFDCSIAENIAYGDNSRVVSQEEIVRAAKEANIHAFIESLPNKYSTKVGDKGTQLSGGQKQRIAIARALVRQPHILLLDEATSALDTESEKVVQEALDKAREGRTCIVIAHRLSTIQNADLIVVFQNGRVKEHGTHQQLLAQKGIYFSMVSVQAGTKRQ
metricName: efflux ratio at 2 h, 1 μM
Lab note: jot the number down without any unit.

Illustrative cases are given below, each with its answer.
Cc1cc(Nc2ncnc3cnc(N4C[C@H]5CC[C@@H]4CO5)nc23)ccc1Oc1ccc2c(c1)ncn2C [Example 54]    1.4
Cc1cc(Nc2ncnc3cnc(NC4CCC4)nc23)ccc1Oc1ccc2c(c1)ncn2C [Example 14]    1.3
Cc1cc(Nc2ncnc3cnc(N4CCCC4)nc23)ccc1Oc1ccc2c(c1)ncn2C [Example 222]    1

Alright, here's another molecule for you.
input: Entry under review: Cc1cc(Nc2ncnc3cnc(O[C@H]4CCNC[C@H]4F)nc23)ccc1Oc1ccc2c(c1)ncn2C [Example 284] . Reported efflux ratio at 2 h, 1 μM?
output: 95.4

The reported measurements were obtained from patent US11834453B2.
